Target: T1, GLP-1R in the INS1e assay (UniProt P32301 22-463, limits assumed)
T1 sequence (looked up): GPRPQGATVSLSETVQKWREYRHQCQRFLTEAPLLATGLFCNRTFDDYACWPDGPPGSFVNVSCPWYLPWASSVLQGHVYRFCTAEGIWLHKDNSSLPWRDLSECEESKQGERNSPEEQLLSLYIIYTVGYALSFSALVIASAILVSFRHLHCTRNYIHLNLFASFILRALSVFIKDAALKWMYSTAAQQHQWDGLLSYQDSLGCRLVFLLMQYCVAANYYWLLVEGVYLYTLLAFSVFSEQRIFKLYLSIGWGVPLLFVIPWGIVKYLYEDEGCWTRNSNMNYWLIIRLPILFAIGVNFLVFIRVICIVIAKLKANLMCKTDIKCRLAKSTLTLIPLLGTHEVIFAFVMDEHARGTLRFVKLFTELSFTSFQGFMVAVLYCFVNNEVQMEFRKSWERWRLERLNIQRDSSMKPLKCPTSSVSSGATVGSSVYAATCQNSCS
Experiment: cell-based or functional assay
Starred links: 1 amine or outer side, 2 acyl side, 3 side chain; linkers in the order of their positions; H or OH if unused. Non-standard residues stand in square brackets, D forms with d. Groups on a side chain read outwards from the residue. Primed or numbered codes have the meaning given here. No end group written: not given here. *: point of attachment. Tyr(OMe) = COc1ccc(C[C@H](N[*:1])C(=O)[*:2])cc1; γGlu = O=C(O)[C@H](CCC(=O)[*:2])N[*:1]; Palmitoyl = CCCCCCCCCCCCCCCC(=O)*; αMeF = C[C@](N)(Cc1ccccc1)C(=O)O; αMeK = C[C@](N)(CCCCN)C(=O)O; Lauroyl = CCCCCCCCCCCC(=O)*; αMeS = C[C@](N)(CO)C(=O)O; PEG2′ = not defined here; Aib = CC(C)(N)C(=O)O
Reported INS1e assay EC50 (cAMP) Mean is given for each of the following binders.
recorded-metric: INS1e assay EC50 (cAMP) Mean (pM)

binder	value-measured
H[Aib]EGTFTSDVSK([PEG2′-PEG2′-γGlu-Lauroyl])YLEGEAAEEFIK([PEG2′-PEG2′-γGlu-Lauroyl])FVVEGG-NH2 [SEQ ID NO: 238]	13700
H[Aib]EGTFTSDVSK([PEG2′-PEG2′-γGlu-Lauroyl])FLEGEAAEEFIK([PEG2′-PEG2′-γGlu-Lauroyl])FVVEGG-NH2 [SEQ ID NO: 239]	13000
H[Aib]EGS[αMeF]TSDVSK([PEG2′-PEG2′-γGlu-Lauroyl])YLEGEAA[αMeK]EFIK([PEG2′-PEG2′-γGlu-Lauroyl])WVVEGG-NH2 [SEQ ID NO: 249]	566
H[Aib]EGTFTSDVSK([PEG2′-PEG2′-γGlu-Lauroyl])YLEGEAAEEFIK([PEG2′-PEG2′-γGlu-Lauroyl])WVVEGG-NH2 [SEQ ID NO: 236]	12400
H[Aib]EGS[αMeF]TSDK([PEG2′-PEG2′-γGlu-Lauroyl])SSYLEGEAA[αMeK]EFIK([PEG2′-PEG2′-γGlu-Lauroyl])WVVEGG-NH2 [SEQ ID NO: 256]	1300
H[Aib]EGS[αMeF]TSDV[αMeS]SYK([PEG2′-PEG2′-γGlu-Lauroyl])EGEAA[αMeK]EFIAK([PEG2′-PEG2′-γGlu-Lauroyl])VVEGG-NH2 [SEQ ID NO: 269]	212
H[Aib]EGS[αMeF]TSDVSK([PEG2′-PEG2′-γGlu-Lauroyl])YLEGEAA[αMeK]EFIAK([PEG2′-PEG2′-γGlu-Lauroyl])VVEGG-NH2 [SEQ ID NO: 252]	175
H[Aib]EGS[αMeF]TSDV[αMeS]SK([PEG2′-PEG2′-γGlu-Lauroyl])LEGEAA[αMeK]E[Tyr(OMe)]IAK([PEG2′-PEG2′-γGlu-Lauroyl])VVEGG-NH2 [SEQ ID NO: 406]	94
H[Aib]EGS[αMeF]TSDV[αMeS]SK([PEG2′-PEG2′-γGlu-Palmitoyl])LEGEAA[αMeK]EFIK([PEG2′-PEG2′-γGlu-Palmitoyl])WVVEGG-NH2 [SEQ ID NO: 265]	8770
